Just for reference, a melting point compilation (Tetko et al.; mined from patent text by program, amines drawn as free bases though some values may be those of a salt) is where these values come from.

melting point overview

1. COc1cc(-c2nc(=O)c3ccccc3s2)ccn1 :: 149 to 150 °C
2. CSc1c(C(Cc2ccc(Cl)cc2)C(=O)O)ccc2c3ccccc3n(Cc3ccc(Cl)cc3)c12 (stereo not given) :: 104 to 107 °C
3. COC(=O)[C@@H](N)CCc1nnnn1CC(=O)N[C@H](C)C(=O)OC :: 87 to 89 °C
4. COc1cc2c(cc1OC)C(=O)c1cc3ccccc3cc1C2=O :: > 250 °C
5. N#Cc1ccc2nc(C(=O)NCc3ccnc(OCC4CCOC4)c3)[nH]c(=O)c2c1 (stereo not given) :: 230 to 233 °C

So what's the measured melting point for this one? O=C(NCCCOc1cc(CN2CCCCC2)ccn1)c1cn[nH]c1
117 to 119 °C

Also check ClCn1cnc(Cl)c1Cl
40 to 41 °C

Consider next the compound COC(=O)Cc1ccc(OCCNC(=O)C2Cc3ccccc3N2S(=O)(=O)c2ccc(-c3ccc(F)cc3Cl)cc2)cc1 (stereo not given) in the same way.
68 °C

Next record, please: CC(CN(C)C)Oc1ccc(-c2nn(CC(=O)O)c3ncccc23)cc1 (stereo not given)
210 to 211 °C

Repeat with N#Cc1cccc(CN2C(=O)C3(COc4cc5c(cc43)OCCO5)c3ccccc32)c1 (stereo not given)
94 to 96 °C

Same for Cc1ccc(-c2nc3ncccc3o2)cc1
135 to 136 °C

Further, for OC1CSC(Oc2cncc(-c3cccs3)c2)C(O)C1O (stereo not given) ?
205 °C
